Format: physicochemical
Details: pH 7.4
OBSERVABLE: logD
Number, no unit, nothing else.

Recorded results for 2 molecules are shown here.
[
  {
    "MOLECULE": "CC(=O)N[C@H]1CCCN(O)C(=O)/C=C(/C)CCOC(=O)[C@@H](NC(=O)CCOCCOCCOCCOCCOCCC(=O)NCc2ccc(-c3nncnn3)cc2)CCCN(O)C(=O)/C=C(/C)CCOC(=O)[C@@H](NC(=O)CCCCC[N+]2=C(/C=C/C3=C(Oc4ccc(S(=O)(=O)O)cc4)C(=C/C=C4/N(CCCCS(=O)(=O)O)c5ccc(S(=O)(=O)O)cc5C4(C)C)/CCC3)C(C)(C)c3cc(S(=O)(=O)[O-])ccc32)CCCN(O)C(=O)/C=C(/C)CCOC1=O [IRDye800CW-MAFC-PEG5-Tz]",
    "REPORTED": -2.4
  },
  {
    "MOLECULE": "CC(=O)N[C@H]1CCCN(O)C(=O)/C=C(/C)CCOC(=O)[C@@H](NC(=O)CCOCCOCCOCCOCCOCCC(=O)NCc2ccc(-c3nncnn3)cc2)CCCN(O)C(=O)/C=C(/C)CCOC(=O)[C@@H](NC(=O)CCCCC[N+]2=C(/C=C/C3=CC(=C/C=C4/N(C)c5ccc(S(=O)(=O)O)cc5C4(C)C)/CCC3)C(C)(C)c3cc(S(=O)(=O)[O-])ccc32)CCCN(O)C(=O)/C=C(/C)CCOC1=O",
    "REPORTED": -1.92
  }
]

Kindly note the recorded logD for `C/C1=C/C(=O)N(O)CCC[C@H](NC(=O)CCOCCOCCOCCOCCOCCC(=O)NCc2ccc(-c3nncnn3)cc2)C(=O)OCC/C(C)=C\C(=O)N(O)CCC[C@H](NC(=O)CCOCCOCCOCCOCCOCCC(=O)NCc2ccc(-c3nncnn3)cc2)C(=O)OCC/C(C)=C\C(=O)N(O)CCC[C@H](NC(=O)CCCCC[N+]2=C(/C=C/C=C/C=C3/N(C)c4ccc(S(=O)(=O)O)cc4C3(C)C)C(C)(C)c3cc(S(=O)(=O)[O-])ccc32)C(=O)OCC1` , which is -2.29

----------
# logD per entry
Type: physicochemical
Settings: pH 7.4

[
  {
    "COMPOUND": "C/C1=C/C(=O)N(O)CCC[C@H](NC(=O)CCOCCOCCOCCOCCOCCC(=O)NCc2ccc(-c3nncnn3)cc2)C(=O)OCC/C(C)=C\\C(=O)N(O)CCC[C@H](NC(=O)CCOCCOCCOCCOCCOCCC(=O)NCc2ccc(-c3nncnn3)cc2)C(=O)OCC/C(C)=C\\C(=O)N(O)CCC[C@H](NC(=O)CCCCC[N+]2=C(/C=C/C3=C(Oc4ccc(S(=O)(=O)O)cc4)C(=C/C=C4/N(CCCCS(=O)(=O)O)c5ccc(S(=O)(=O)O)cc5C4(C)C)/CCC3)C(C)(C)c3cc(S(=O)(=O)[O-])ccc32)C(=O)OCC1 [IRDye800CW-FSC-(PEG5-Tz)2]",
    "OBSERVABLE": "logD",
    "REPORTED": -2.46
  }
]

Looking up CC(=O)N[C@H]1CCCN(O)C(=O)/C=C(/C)CCOC(=O)[C@@H](NC(=O)CCOCCOCCOCCOCCOCCC(=O)NCc2ccc(-c3nncnn3)cc2)CCCN(O)C(=O)/C=C(/C)CCOC(=O)[C@@H](NC(=O)CCCCC[N+]2=C(/C=C/C=C/C=C3/N(C)c4ccc(S(=O)(=O)O)cc4C3(C)C)C(C)(C)c3cc(S(=O)(=O)[O-])ccc32)CCCN(O)C(=O)/C=C(/C)CCOC1=O [SulfoCy5-MAFC-PEG5-Tz] , I found its logD recorded as -2.85
